Could you please report measured EC50 for the items listed next?
Tested on: HBV (HepG2.117 cell line, inducibly HBV producing)
protocol details: Anti-HBV activity, intracellular HBV DNA by real-time PCR in HepG2.117 cell line
Type: cell-based, hepatitis B virus
assay context: HepG2.117 cells, 3 days of treatment
Protocol: The anti HBV activity was measured using the HepG2.117 cell line, a stable, inducibly HBV producing cell line, which replicates HBV in the absence of doxycycline (Tet-off system). The HepG2 cell line is available from ATCCR under number HB-8065. Transfection of the HepG2 cell line can be as described in Sun and Nassal 2006 Journal of Hepatology 45 (2006) 636-645 “Stable HepG2- and Huh7-based human hepatoma cell lines for efficient regulated expression of infectious hepatitis B virus”. […]
Number first, unit second: that is the form wanted.

I'd like to know its EC50. The molecule in question is CC(c1ccn(C(C)C)c(=O)c1)N1C[C@@H](C)n2nc3c(c2C1=O)CN(C(=O)c1ccc(Cl)c(C(F)(F)F)c1)[C@H](C)C3 (single isomer, unassigned) [Compound 47A]
0.068 µM

I'd like to know its EC50. The molecule in question is CNC(=O)C(c1ccc(OC(F)F)cc1)N1C[C@@H](C)n2nc3c(c2C1=O)CN(C(=O)c1ccc(Cl)c(Cl)c1)[C@H](C)C3 (single isomer, unassigned) [Compound 23B]
0.24 µM

I'd like to know its EC50. The molecule in question is CC(c1ccn(CC(C)(C)O)c(=O)c1)N1C[C@@H](C)n2nc3c(c2C1=O)CN(C(=O)c1ccc(Cl)c(C(F)(F)F)c1)[C@H](C)C3 (single isomer, unassigned) [Compound 64B]
0.085 µM

I'd like to know its EC50. The molecule in question is C[C@@H]1Cc2nn3c(c2CN1C(=O)c1ccc(Cl)c(C(F)(F)F)c1)C(=O)N([C@H](C)c1ccc([S@@]2(=O)=NCCC2)nc1)C[C@H]3C (relative stereo) [Compound 30A]
0.14 µM

I'd like to know its EC50. The molecule in question is CC(c1cnc(N2CCOC[C@@H]2C)nc1)N1C[C@@H](C)n2nc3c(c2C1=O)CN(C(=O)c1ccc(Cl)c(C(F)(F)F)c1)[C@H](C)C3 (single isomer, unassigned) [Compound 38A]
0.06 µM
